FYI, the data here is from PubChem BioAssay AID720540.

- Assayed System: Protein phosphatase EYA2 (Homo sapiens) (UniProt O00167)
- Sequence (O00167 whole entry, looked up): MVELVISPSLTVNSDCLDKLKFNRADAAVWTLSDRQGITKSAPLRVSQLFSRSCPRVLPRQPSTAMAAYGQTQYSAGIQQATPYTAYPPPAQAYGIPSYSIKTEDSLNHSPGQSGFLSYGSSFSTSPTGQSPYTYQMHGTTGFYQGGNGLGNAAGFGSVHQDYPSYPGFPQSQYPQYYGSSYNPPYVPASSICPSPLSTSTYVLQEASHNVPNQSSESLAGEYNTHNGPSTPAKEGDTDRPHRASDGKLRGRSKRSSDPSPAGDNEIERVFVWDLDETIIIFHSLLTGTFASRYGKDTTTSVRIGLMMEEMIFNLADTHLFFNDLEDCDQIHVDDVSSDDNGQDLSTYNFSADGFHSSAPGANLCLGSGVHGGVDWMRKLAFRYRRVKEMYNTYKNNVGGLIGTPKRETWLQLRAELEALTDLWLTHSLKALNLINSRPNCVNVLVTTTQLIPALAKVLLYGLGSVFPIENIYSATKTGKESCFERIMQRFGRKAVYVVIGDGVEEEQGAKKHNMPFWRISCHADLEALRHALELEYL
- Test Protocol: qHTS for Inhibitors of the Phosphatase Activity of Eya2: Confirmatory Assay for Cherry-picked Compounds; also: nearly all actives have a fitted effect of over 65% in size; also: potency is read from the fitted curve at half-maximal effect
- Run Conditions: purified EYA2 phosphatase activity, qHTS confirmation; series mostly up to 46.1 µM
Hit rate of the full screen: of about 1,300 compounds, about 460 (35%) were called active. Inconclusive results (about 39%) are left out. Some of the results follow.
Observed Property: Potency

The examples below pair each entry with its known result.
CN(C)c1ccc(NC(=O)CC(NCc2ccccn2)C(=O)O)cc1 (stereo unspecified) = 0.849 µM (active)
CC(=O)Nc1ccc(NC(=O)COc2ncnc3ccccc23)cc1 = inactive
O=C(Nc1nc2c(F)cc(F)cc2s1)c1ccc([N+](=O)[O-])o1 = inactive
COc1ccc(-c2nnc(NC(=O)c3ccc(S(=O)(=O)N(C)CC4CCCO4)cc3)o2)c(OC)c1 (stereo unspecified) = 21.3 µM (active)
O=c1c(O)c(-c2ccc(O)cc2O)oc2cc(O)cc(O)c12 = 8.49 µM (active)

Query string: Specify Potency for CN(Cc1ccccc1F)c1nc(-c2cccnc2)nc2ccccc12 , system Protein phosphatase EYA2 (Homo sapiens) (UniProt O00167).
Result string: inactive
